target: Glutamate NMDA receptor; Grin1/Grin2b (Rattus norvegicus, UniProt P35439+Q00960); assay: Positive allosteric modulation of recombinant rat GluN1/GluN2B receptor expressed in xenopus laevis oocyte assessed as potentiation of glutamate and glycine-induced current response at holding potential -40mV by two electrode voltage clamp method
Sequence (Q00960 whole entry, other chains not shown): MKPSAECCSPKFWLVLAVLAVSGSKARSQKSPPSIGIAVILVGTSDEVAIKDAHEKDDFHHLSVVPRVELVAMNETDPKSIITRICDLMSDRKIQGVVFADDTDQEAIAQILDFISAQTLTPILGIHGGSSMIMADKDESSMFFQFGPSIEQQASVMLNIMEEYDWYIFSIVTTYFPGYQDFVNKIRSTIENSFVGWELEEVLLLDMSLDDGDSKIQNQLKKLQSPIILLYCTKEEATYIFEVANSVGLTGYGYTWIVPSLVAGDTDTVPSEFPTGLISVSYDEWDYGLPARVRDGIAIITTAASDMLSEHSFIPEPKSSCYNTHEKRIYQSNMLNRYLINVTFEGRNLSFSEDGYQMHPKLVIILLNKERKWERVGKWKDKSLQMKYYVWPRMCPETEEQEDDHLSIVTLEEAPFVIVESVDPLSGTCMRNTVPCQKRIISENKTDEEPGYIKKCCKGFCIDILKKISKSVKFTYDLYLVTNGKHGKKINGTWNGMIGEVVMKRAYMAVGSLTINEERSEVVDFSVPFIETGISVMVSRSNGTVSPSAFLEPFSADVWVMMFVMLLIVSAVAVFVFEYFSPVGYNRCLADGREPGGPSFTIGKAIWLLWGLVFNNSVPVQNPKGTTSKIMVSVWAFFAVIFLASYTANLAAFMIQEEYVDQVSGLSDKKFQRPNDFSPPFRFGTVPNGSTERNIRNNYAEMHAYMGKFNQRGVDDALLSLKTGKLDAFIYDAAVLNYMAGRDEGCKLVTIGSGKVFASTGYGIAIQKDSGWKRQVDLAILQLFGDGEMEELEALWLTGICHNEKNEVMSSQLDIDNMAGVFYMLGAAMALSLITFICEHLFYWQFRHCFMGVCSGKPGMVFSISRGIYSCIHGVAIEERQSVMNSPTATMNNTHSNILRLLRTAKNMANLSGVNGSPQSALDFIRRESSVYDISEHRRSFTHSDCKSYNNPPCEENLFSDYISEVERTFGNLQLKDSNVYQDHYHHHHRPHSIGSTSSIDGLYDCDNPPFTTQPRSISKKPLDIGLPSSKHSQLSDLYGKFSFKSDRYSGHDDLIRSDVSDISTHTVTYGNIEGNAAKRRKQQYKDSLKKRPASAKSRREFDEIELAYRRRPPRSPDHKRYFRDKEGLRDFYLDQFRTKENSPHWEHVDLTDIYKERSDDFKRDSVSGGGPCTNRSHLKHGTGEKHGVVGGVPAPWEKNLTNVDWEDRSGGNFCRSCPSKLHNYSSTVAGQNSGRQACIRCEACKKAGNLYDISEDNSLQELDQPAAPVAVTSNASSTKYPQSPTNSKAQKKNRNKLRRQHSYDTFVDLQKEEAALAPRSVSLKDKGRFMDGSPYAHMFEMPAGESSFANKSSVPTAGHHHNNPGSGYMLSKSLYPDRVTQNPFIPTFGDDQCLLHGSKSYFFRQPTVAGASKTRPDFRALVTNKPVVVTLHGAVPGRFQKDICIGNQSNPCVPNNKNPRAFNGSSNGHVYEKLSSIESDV
Endpoint Label: EC50 (µM)

{"Molecule": "COc1ccc(OCC2c3ccc(OC(C)C)cc3CCN2C(=O)c2cccc(I)c2)cc1 (stereo unspecified)", "EC50 (µM)": 1.7}
{"Molecule": "COc1ccc(OCC2c3ccc(NC(C)C)cc3CCN2C(=O)c2cccc(Cl)c2)cc1 (stereo unspecified)", "EC50 (µM)": 9.3}
{"Molecule": "COc1ccc(OCC2c3ccc(OC(C)C)cc3CCN2C(=O)c2cccc([N+](=O)[O-])c2)cc1 (stereo unspecified)", "EC50 (µM)": 5.3}
{"Molecule": "CCOc1ccc(OCC2c3ccc(OC(C)C)cc3CCN2C(=S)c2cccc(C(F)(F)F)c2)cc1 (stereo unspecified)", "EC50 (µM)": 0.72}
{"Molecule": "COc1ccc(OCC2c3ccc(N(C)C(C)C)cc3CCN2C(=O)c2cccc(Cl)c2)cc1 (stereo unspecified)", "EC50 (µM)": 5.9}
{"Molecule": "COc1ccc(OCC2c3ccc(OC(C)C)cc3CCN2C(=O)c2cccc(C(F)(F)F)c2)cc1 (stereo unspecified)", "EC50 (µM)": 6.1}
{"Molecule": "CC(C)Oc1ccc(OCC2c3ccc(OC(C)C)cc3CCN2C(=O)c2cccc(C(F)(F)F)c2)cc1 (stereo unspecified)", "EC50 (µM)": 1.5}

a: CC(C)Oc1ccc2c(c1)CCN(C(=O)c1cccc(Cl)c1)C2COc1ccc(OC(F)(F)F)cc1 (stereo unspecified)
b: CCOc1ccc2c(c1)CCN(C(=O)c1cccc(Cl)c1)C2COc1ccc(OC)cc1 (stereo unspecified)
c: CCOc1ccc(OCC2c3ccc(OC4CCCC4)cc3CCN2C(=O)c2cccc(Cl)c2)cc1 (stereo unspecified)
d: COc1ccc(OCC2c3ccc(OC(C)C)cc3CCN2C(=S)c2cccc(Cl)c2)cc1 (stereo unspecified)
Falling order of EC50, please. Your answer should be the labels, listed in the requested order.
b, c, a, d

* * *

biological target: Glutamate NMDA receptor; Grin1/Grin2c (Rattus norvegicus) (UniProt P35439+Q00961); assay: Positive allosteric modulation of recombinant rat GluN1/GluN2C receptor expressed in xenopus laevis oocyte assessed as compound concentration required to show two fold increase in glutamate and glycine-induced current response at holding potential -40mV by two electrode voltage clamp method
Endpoint Label: CD (µM)

Some solved cases for reference:
{"Compound": "COc1ccc(OC[C@@H]2c3ccc(OC(C)C)cc3CCN2C(=O)c2cccc(Cl)c2)cc1", "Endpoint Label": "CD", "Measured": 3.5}
{"Compound": "CCOc1ccc(OCC2c3ccc(OC(C)C)cc3CCN2C(=S)c2cccc(Cl)c2)cc1 (stereo not given)", "Endpoint Label": "CD", "Measured": 7.6}
{"Compound": "COc1ccc(OC[C@@H]2c3ccc(OC(C)C)cc3CCN2C(=S)c2cccc(Cl)c2)cc1", "Endpoint Label": "CD", "Measured": 0.5}

A: COc1ccc(OCC2c3ccc(OC(C)C)cc3CCN2C(=S)c2cccc(Cl)c2)cc1 (stereo not given)
B: COc1ccc(OC[C@H]2c3ccc(OC(C)C)cc3CCN2C(=S)c2cccc(Cl)c2)cc1
Please tell me which of the two, A or B , has the higher reported CD value. Give the label under which the chosen entry appears.
B
(B: 3.8 µM, A: 1.1 µM)
